# ASSAY: solubility in water
# Type: physicochemical
# MEASUREMENT CONTEXT: water, 25 °C, constant stirring at 200 rpm; HPLC; read-out: solubility in water (amounts of sample dissolved in 1 ml of water)
# Excerpt: […]
ATTRIBUTE MEASURED: solubility (mg/mL)
I only need the number, in mg/mL, no unit after it.

Use these answered entries as a reference point.
MOLECULE	READOUT UNITS	solubility
Cc1c(C)c2c(c(C)c1O)CCC(C)(CCO)O2 (racemic) [formula (6), reference compound]	mg/mL	0.1
Cc1c(C)c2c(c(C)c1O)CCC(C)(CO)O2 (racemic) [formula (3), reference compound]	mg/mL	1
Cc1c(C)c2c(c(C)c1O)CCC(C)(C(=O)O)O2 (stereo not drawn) [Trolox, reference compound]	mg/mL	0.2
Cc1c(C)c2c(c(C)c1O)CCC(C)(CCO[C@H]1O[C@H](CO)[C@@H](O)[C@H](O)[C@H]1O)O2 (stereo partly drawn)	mg/mL	33

Incoming: Please supply the value of reported solubility for the item Cc1c(C)c2c(c(C)c1O)CCC(C)(CCO[C@H]1O[C@H](CO)[C@@H](O[C@H]3O[C@H](CO)[C@@H](O)[C@H](O)[C@H]3O)[C@H](O)[C@H]1O)O2 (stereo partly drawn)
Outgoing: 141

From: patent US5478812A
